Tested system: human ether-à-go-go-related gene (hERG) potassium channel (human)
Method notes: primary screen, population patch clamp on CHO cells stably expressing hERG; higher = less effect of the substance
The campaign covered roughly 310,000 compounds. About 14,000 (4.5%) showed an effect of 50% or more. Effects have a minus sign here. The full list was thinned out, with strong results kept by preference.
Classes (hERG current change (%, negative = inhibition) at 10uM): class 0 (below -70%), class 1 (-70% to below -10%), class 2 (-10% or more)

Here's what some known entries look like.
In [3]: df
Out[3]:
                                   compound    class
0            CC1CCN(CCOc2ccc(Cl)c(Cl)c2)CC1  class 1
1         Cc1ccccc1/C=N/NC(=O)Cc1ccc(Cl)cc1  class 2
2  Clc1cc(Br)ccc1OCCOCCN1CCCC1.O=C(O)C(=O)O  class 1
3  CC1CCN(CCOCCOc2ccc(Br)cc2Cl)CC1.O=C(O)C(=O)O  class 0
4  CC(C)CCN1CCN(Cc2cccn2-c2ccccn2)CC1CCO (centres unmarked)  class 0

## Task // return the class label for `Cc1ccc(OC(=O)CCC(=O)Nc2ccc(C(N)=O)cc2)cc1`
## Result class 2

## Task // return the class label for `Cc1cc(S(=O)(=O)Nc2ccc3c(c2)n(C)c(=O)n3C)ccc1F`
## Result class 2

## Task // return the class label for CC(C)CCN1CCN(Cc2cccc3cccnc23)CC1CCO (centres unmarked)
## Result class 1

## Task // return the class label for `CC1CCN(CCCOc2ccc(Cl)cc2Br)CC1`
## Result class 0

## Task // return the class label for `CN1CCN(CCOCCOc2ccc(Br)cc2Cl)CC1.O=C(O)C(=O)O`
## Result class 1

----------
Tested system: human ether-à-go-go-related gene (hERG) potassium channel (human, UniProt Q12809)
Sequence (Q12809 whole entry, looked up): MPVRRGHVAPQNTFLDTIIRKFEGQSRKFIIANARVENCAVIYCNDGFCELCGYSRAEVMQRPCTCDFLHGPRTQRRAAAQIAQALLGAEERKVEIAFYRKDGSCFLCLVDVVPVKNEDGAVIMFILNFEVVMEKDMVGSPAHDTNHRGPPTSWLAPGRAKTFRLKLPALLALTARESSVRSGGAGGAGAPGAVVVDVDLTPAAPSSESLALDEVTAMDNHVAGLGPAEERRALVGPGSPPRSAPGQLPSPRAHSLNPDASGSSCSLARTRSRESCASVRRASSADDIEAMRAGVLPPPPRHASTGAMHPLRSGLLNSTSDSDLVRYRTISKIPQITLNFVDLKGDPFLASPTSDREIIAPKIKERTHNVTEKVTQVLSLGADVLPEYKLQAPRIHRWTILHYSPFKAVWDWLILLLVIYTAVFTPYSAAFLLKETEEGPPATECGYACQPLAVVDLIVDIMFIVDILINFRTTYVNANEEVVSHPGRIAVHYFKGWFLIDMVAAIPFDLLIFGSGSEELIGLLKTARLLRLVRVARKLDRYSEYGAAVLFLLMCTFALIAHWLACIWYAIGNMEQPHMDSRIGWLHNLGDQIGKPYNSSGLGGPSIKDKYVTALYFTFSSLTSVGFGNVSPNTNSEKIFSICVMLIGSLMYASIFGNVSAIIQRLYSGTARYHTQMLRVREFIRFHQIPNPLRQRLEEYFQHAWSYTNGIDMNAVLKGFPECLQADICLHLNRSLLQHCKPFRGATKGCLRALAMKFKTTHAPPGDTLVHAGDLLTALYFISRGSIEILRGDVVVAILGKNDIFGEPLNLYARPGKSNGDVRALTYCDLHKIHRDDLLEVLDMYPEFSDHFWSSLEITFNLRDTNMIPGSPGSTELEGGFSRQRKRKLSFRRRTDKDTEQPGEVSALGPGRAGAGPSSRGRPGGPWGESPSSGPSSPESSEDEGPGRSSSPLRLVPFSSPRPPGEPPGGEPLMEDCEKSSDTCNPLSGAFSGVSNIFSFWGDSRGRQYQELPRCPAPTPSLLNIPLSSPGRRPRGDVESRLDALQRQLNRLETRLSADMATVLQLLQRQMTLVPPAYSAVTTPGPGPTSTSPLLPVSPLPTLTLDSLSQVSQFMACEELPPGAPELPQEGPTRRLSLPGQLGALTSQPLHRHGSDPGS
Method notes: primary screen, population patch clamp on CHO cells stably expressing hERG; higher = less effect of the substance
Screen size: about 310,000 compounds; about 14,000 (4.5%) showed an effect of 50% or more. The effect is printed as a negative number. What follows is part of a selection rich in strong results, with near analogues and random picks from the rest.
Property: hERG current change (%, negative = inhibition) at 10uM

>>> df
                                   molecule  test_value
0  CN(C)c1ccc(C(CNC(=O)c2ccccc2F)c2c[nH]c3ccccc23)cc1 (stereo not drawn)       -8.6%
1  CCOC(=O)CC(NC(=O)c1cc2ccccc2oc1=O)c1cccc([N+](=O)[O-])c1 (stereo not drawn)      -58.5%
2  CCOC(=O)CC(NC(=O)c1cc2cccc(OC)c2oc1=O)c1cccc([N+](=O)[O-])c1 (stereo not drawn)        -23%
3  O=C(Nc1ccc(O)cc1)C1CCCN1S(=O)(=O)c1ccc(F)cc1 (stereo not drawn)      -1.44%

## Task Please report the measured hERG current change (%, negative = inhibition) at 10uM for CCOC(=O)CC(NC(=O)c1cc2cc(Br)ccc2oc1=O)c1cccc([N+](=O)[O-])c1 (stereo not drawn)
## Result -27.5%

## Task Please report the measured hERG current change (%, negative = inhibition) at 10uM for CCOC(=O)CC(NC(=O)c1cc2cc(Cl)cc(Cl)c2oc1=O)c1cccc([N+](=O)[O-])c1 (stereo not drawn)
## Result -66.8%

## Task Please report the measured hERG current change (%, negative = inhibition) at 10uM for CCOC(=O)CC(N)c1cccc([N+](=O)[O-])c1.Cl (stereo not drawn)
## Result 2.9%

## Task Please report the measured hERG current change (%, negative = inhibition) at 10uM for CCOC(=O)CC(NC(=O)c1cc2cccc(OC)c2oc1=O)c1ccc(OC)cc1 (stereo not drawn)
## Result -5.76%

## Task Please report the measured hERG current change (%, negative = inhibition) at 10uM for CSCCC(NS(=O)(=O)c1ccccc1F)C(=O)Nc1ccncc1 (stereo not drawn)
## Result -10.8%

----------
Tested system: human ether-à-go-go-related gene (hERG) potassium channel (human, UniProt Q12809)
Method notes: primary screen, population patch clamp on CHO cells stably expressing hERG; higher = less effect of the substance
Out of some 310,000 compounds screened, about 14,000 (4.5%) showed an effect of 50% or more. The effect is printed as a negative number. The full list was thinned out, with strong results kept by preference.
Property: hERG current change (%, negative = inhibition) at 10uM (%)
Expressed in %, but write only the number.

In [3]: df
Out[3]:
                                   molecule                             tested_system  test_value
0  Cc1ccc(CN2CCN(CCCc3ccccc3)CC2CCO)cc1 (centres unmarked)  human ether-à-go-go-related gene (hERG) potassium channel (human, UniProt Q12809)       -76.4
1  O=C(NCc1ccc(F)cc1)C1CCCN(c2cnccn2)C1 (centres unmarked)  human ether-à-go-go-related gene (hERG) potassium channel (human, UniProt Q12809)         -65
2   COCCNC(=S)N1CCN(C(c2ccccc2)c2ccccc2)CC1  human ether-à-go-go-related gene (hERG) potassium channel (human, UniProt Q12809)       -10.1
3  CCOC(=O)C1(O)CC(C)=NN1C(=O)c1cccc(Br)c1 (centres unmarked)  human ether-à-go-go-related gene (hERG) potassium channel (human, UniProt Q12809)        25.9

## Task Please report the measured hERG current change (%, negative = inhibition) at 10uM for `CN(C)S(=O)(=O)c1cccc(C(=O)NCC2(N3CCOCC3)CCCCC2)c1`
## Result -13.4

----------
Tested system: human ether-à-go-go-related gene (hERG) potassium channel (human);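 also: peak tail current of the secondary pulse compared with the same well before compound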
Method notes: primary screen, population patch clamp on CHO cells stably expressing hERG; higher = less effect of the substance
The whole screen tested about 310,000 compounds, of which about 14,000 (4.5%) showed an effect of 50% or more. The effect is printed as a negative number. For the sample, strong results were picked, then their nearest neighbours and some compounds at random.
Below is a list of entries, each paired with its recorded hERG current change (%, negative = inhibition) at 10uM value.
Expressed in %, but write only the number.

## Task Name the value of hERG current change (%, negative = inhibition) at 10uM reported for `CCN(CC)CCCN(C(C)=O)c1nc(-c2cc(OC)ccc2OC)cs1.Cl` when tested on human ether-à-go-go-related gene (hERG) potassium channel (human).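 Also: peak tail current of the secondary pulse compared with the same well before compound.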
## Result -65.8

----------
Below is a list of entries, each paired with its recorded hERG current change (%, negative = inhibition) at 10uM value.
Tested system: human ether-à-go-go-related gene (hERG) potassium channel (human, UniProt Q12809);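 also: peak tail current of the secondary pulse compared with the same well before compound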
Method notes: primary screen, population patch clamp on CHO cells stably expressing hERG; higher = less effect of the substance
Hit rate of the full screen: of about 310,000 compounds, about 14,000 (4.5%) showed an effect of 50% or more. The effect is printed as a negative number. The entries come from a sample that favours strong results as a whole.
Expressed in %, but write only the number.

Would you please look over these solved cases?
>>> print(df.to_string())
                                   compound  test_value
0  O=C(N/C(=C/c1ccc(Br)cc1)C(=O)N1CCOCC1)c1cccs1       -5.65
1  COc1ccccc1/C=C/C(=O)NC1CC2CCC1C2 (stereo not shown)       -3.53
2  O=C(N/C(=C/c1ccc(Br)cc1)C(=O)N1CCOCC1)c1ccc(Br)o1       -70.2
3  O=C(N/C(=C\c1ccccc1)C(=O)N1CCOCC1)c1ccc(Br)o1        3.18
4  Cn1c(=O)c2c(ncn2CC(=O)OCc2ccccc2)n(C)c1=O       -6.21

## Task Please report the measured hERG current change (%, negative = inhibition) at 10uM for `CCN(Cc1ccccc1)C(=O)Cn1cnc2c1c(=O)n(C)c(=O)n2C`
## Result -16.1

## Task Please report the measured hERG current change (%, negative = inhibition) at 10uM for O=C(/C=C/c1cccc([N+](=O)[O-])c1)NC1CC2CCC1C2 (stereo not shown)
## Result -24.7

## Task Please report the measured hERG current change (%, negative = inhibition) at 10uM for `O=C(N/C(=C/c1ccc(Br)cc1)C(=O)N1CCOCC1)c1ccco1`
## Result -24.1

## Task Please report the measured hERG current change (%, negative = inhibition) at 10uM for O=C(/C=C/c1ccccc1)NC1CC2CCC1C2 (stereo not shown)
## Result 5.72

## Task Please report the measured hERG current change (%, negative = inhibition) at 10uM for `O=C1C2(c3ccccc3)CN(CCO)CC1(c1ccccc1)CN(CCO)C2`
## Result -10.6

----------
Below is a list of entries, each paired with its recorded hERG current change (%, negative = inhibition) at 10uM value.
Tested system: human ether-à-go-go-related gene (hERG) potassium channel (human, UniProt Q12809);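 also: peak tail current of the secondary pulse compared with the same well before compound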
Method notes: primary screen, population patch clamp on CHO cells stably expressing hERG; higher = less effect of the substance
The campaign covered roughly 310,000 compounds. About 14,000 (4.5%) showed an effect of 50% or more. The effect is printed as a negative number. The sample as a whole holds a higher share of strong results than the screen did.
Note to self: number, then unit, no commentary.

Would you please look over these solved cases?
In [3]: df
Out[3]:
                                   compound  test_value
0  COc1ccc(-n2nc(C(=O)NCC(=O)NCc3ccccc3OC)c3ccccc3c2=O)c(OC)c1       7.07%
1  CCN(CCn1cccn1)C(=O)C1CCC(=O)N(CCN2CCOCC2)C1 (stereo not drawn)       6.14%
2    N#Cc1ccc(N2CCN(C(=O)c3cccs3)CC2)c(F)c1      -55.7%
3  O=C(CSc1nnc(-c2ccccc2)c(-c2ccccc2)n1)NCc1ccco1      -55.5%
4           O=C(CSCC(=O)NCc1ccco1)NCc1ccco1        -66%

## Task Please report the measured hERG current change (%, negative = inhibition) at 10uM for `COc1ccc(-n2nc(C(=O)NCC(=O)NCCCN3CCC(C)CC3)c3ccccc3c2=O)cc1Cl`
## Result -74.2%
